Data credit: paper PMC4559561

# experimentDescription: Plasma protein fraction by rapid equilibrium dialysis in mouse serum
# Format: in vitro ADME
# recordedConditions: 10 μM compound in mouse serum vs PBS, 37 °C, read-out: Plasma Free Fraction
Kindly return yes (1) if reported fraction unbound at 4 h, 10 μM is no lower than 0.08; return no (0) if it is lower.

{"compoundStructure": "O=C(c1cccc(I)c1)N1CCN(C(=O)c2cc(Cc3n[nH]c(=O)c4ccccc34)ccc2F)CC1", "answerLabel": "yes (1)"}
{"compoundStructure": "O=C(CCc1ccc(I)cc1)N1CCN(C(=O)c2cc(Cc3n[nH]c(=O)c4ccccc34)ccc2F)CC1", "answerLabel": "no (0)"}
{"compoundStructure": "O=C(c1ccc(I)cc1)N1CCN(C(=O)c2cc(Cc3n[nH]c(=O)c4ccccc34)ccc2F)CC1", "answerLabel": "yes (1)"}
{"compoundStructure": "O=C(Cc1cccc(I)c1)N1CCN(C(=O)c2cc(Cc3n[nH]c(=O)c4ccccc34)ccc2F)CC1", "answerLabel": "no (0)"}
{"compoundStructure": "O=C(Cc1ccc(I)cc1)N1CCN(C(=O)c2cc(Cc3n[nH]c(=O)c4ccccc34)ccc2F)CC1", "answerLabel": "no (0)"}
